- Tested on: velvetleaf
- method: Test B pre-/postemergence herbicide test
- Type: in vivo, Abutilon theophrasti
- condition: Postemergence, 500 g ai/ha; visual rating after 13 to 15 days, scale 0 (no effect) to 100 (complete control)
experimental-endpoint: Plant response rating, Velvetleaf
// return just the number, without any unit appended

Consider the following illustrative entries.
structure_as_smiles=CCOC(=O)c1cc(NC(=O)c2cc(C(C)(C)C)nn2CC)ccc1C assay_target=velvetleaf experimental_endpoint="Plant response rating, Velvetleaf" observed_measurement=40
structure_as_smiles=C=CCNC(=O)c1cccc(NC(=O)c2cc(C(C)(C)C)nn2CC)c1 assay_target=velvetleaf experimental_endpoint="Plant response rating, Velvetleaf" observed_measurement=80

Entry "CCNC(=O)c1cc(NC(=O)c2cc(C(C)(C)C)nn2CC)ccc1F" under velvetleaf had Plant response rating, Velvetleaf of 70

Entry "CCn1nc(C(C)(C)C)cc1C(=O)Nc1cccc(C(=O)OCC(F)(F)F)c1" under velvetleaf had Plant response rating, Velvetleaf of 70

Entry "CCn1nc(C(C)(C)C)cc1C(=O)Nc1cccc(C(=O)OC(C)(C)C)c1" under velvetleaf had Plant response rating, Velvetleaf of 10

Entry "CCON=C(C)c1cccc(NC(=O)c2cc(C(C)(C)C)nn2C)c1" under velvetleaf had Plant response rating, Velvetleaf of 0
